Reference source for all entries: patent US20120276102A1

Biological target: human IL-21R expressed on cells (human, UniProt Q9HBE5 20-538)
Sequence (Q9HBE5 20-538 limits assumed): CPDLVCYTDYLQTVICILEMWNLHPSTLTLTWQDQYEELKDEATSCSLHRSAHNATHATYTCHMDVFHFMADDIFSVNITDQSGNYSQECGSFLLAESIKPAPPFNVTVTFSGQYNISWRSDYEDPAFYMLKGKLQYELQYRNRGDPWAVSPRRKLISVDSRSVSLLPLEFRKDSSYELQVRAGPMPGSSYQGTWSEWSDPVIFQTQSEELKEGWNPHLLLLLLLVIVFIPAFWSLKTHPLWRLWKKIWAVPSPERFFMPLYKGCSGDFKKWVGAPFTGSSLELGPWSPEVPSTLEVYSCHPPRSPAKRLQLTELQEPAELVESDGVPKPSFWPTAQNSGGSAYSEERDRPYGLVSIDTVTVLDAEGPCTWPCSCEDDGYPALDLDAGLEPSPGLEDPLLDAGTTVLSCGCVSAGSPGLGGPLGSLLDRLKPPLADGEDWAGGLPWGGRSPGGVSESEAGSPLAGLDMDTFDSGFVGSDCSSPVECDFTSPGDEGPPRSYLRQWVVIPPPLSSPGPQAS
Test: cell-based or functional assay
Would you mind telling me the reported Neutralization of human primary T cell Proliferation IC50 of each entry?
Express the result in nM but write the number alone.

# input Recorded Neutralization of human primary T cell Proliferation IC50 for parental 18A5 antibody (antibody, V domains shown, also called 18A5 IgG) VH: QVQLQESGPGLVKTSETLSLTCAVSGYSISSGYYWGWIRQPPGKGLEWIGSISHTGNTYYNPPLKSRVTISVDTSKNQFSLKLSSVTAADTAVYYCARGGGISRPEYWGKGTLVTVSS VL: SSELTQDPPVSVALGQTVTLTCQGDSLRTYYASWYQQKSGQAPILLLYGKHKRPSGIPDRFSGSTSGDTASLTITGAQAEDEADYYCNSRDSSGNPHVLFGGGTQLTVL , please?
# output 1.42

# input Then AbR (antibody, human IgG1, V domains shown, CDR3 graft, residue limits derived as for m29; also called VH3/VL18; VH3DM/VL18) VH: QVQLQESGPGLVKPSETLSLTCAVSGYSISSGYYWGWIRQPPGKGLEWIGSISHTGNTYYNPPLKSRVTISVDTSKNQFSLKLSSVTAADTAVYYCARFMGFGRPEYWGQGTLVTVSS VL: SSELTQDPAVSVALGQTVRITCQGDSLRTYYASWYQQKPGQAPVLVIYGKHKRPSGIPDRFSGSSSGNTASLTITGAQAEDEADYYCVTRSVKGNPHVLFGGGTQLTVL ?
# output 0.04

# input Also need AbQ (antibody, human IgG1, V domains shown, CDR3 graft, residue limits derived as for m29; also called VH3/VL2; VH3DM/VL2) VH: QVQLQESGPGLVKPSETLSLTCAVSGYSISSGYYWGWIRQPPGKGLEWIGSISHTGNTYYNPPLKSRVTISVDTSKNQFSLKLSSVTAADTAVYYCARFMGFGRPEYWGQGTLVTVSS VL: SSELTQDPAVSVALGQTVRITCQGDSLRTYYASWYQQKPGQAPVLVIYGKHKRPSGIPDRFSGSSSGNTASLTITGAQAEDEADYYCVARSVVGNPHVLFGGGTQLTVL , thanks.
# output 0.08
